Entries and their % Inh. (% Inhibition of SARS-CoV-2)
Tested on: SARS-CoV-2
Conditions: 10 µM
Give just the number in %; leave the unit off.

GET /values?readout=% Inh. (% Inhibition of SARS-CoV-2)&item= C[CH2][Hg][S]c1ccccc1C(=O)[O-].[Na+]
79.4

# repeat for COc1cc2ncnc(Nc3ccc(Cl)cc3F)c2cc1OC
77.9

Subsequent entry: Cl.Nc1nc(NCC2CCC(CNS(=O)(=O)c3cccc4ccccc34)CC2)nc2ccccc12 (stereo not drawn)
102.5

Can you check CNC(=O)c1ccccc1Nc1nc(Nc2ccc(N3CCOCC3)cc2OC)ncc1Cl next?
73.2

Same question for CCCc1c(-c2ccc(O)cc2)nn(-c2ccc(O)cc2)c1-c1ccc(O)cc1 please.
71.1

Entry Cc1ccc(-c2nn(C(C)(C)C)c3ncnc(N)c23)cc1 please
121.9

What would you report for O=C1NC(=O)/C(=C/c2cccc(C(F)(F)F)c2)S1 ?
89.9

Then what about the compound CC[C@H](C)[C@@H]([C@@H](CC(=O)N1CCC[C@H]1[C@H](OC)[C@@H](C)C(=O)N[C@@H](Cc1ccccc1)c1nccs1)OC)N(C)C(=O)[C@@H](NC(=O)[C@H](C(C)C)N(C)C)C(C)C ?
64.3

Moving on to the next compound: CCc1c2c(nc3ccc(O)cc13)-c1cc3c(c(=O)n1C2)COC(=O)[C@]3(O)CC
79.2

* * *

Tested on: SARS-CoV-2
Settings: 10 µM
Where a name gives a salt, the structure may show the parent alone.
# note: exactly 90% is not below, so it is False; use True for % Inh. (% Inhibition of SARS-CoV-2) strictly under it

Example cases with answers are listed next.
{"compound": "COc1ccc(-c2csc(NC(=O)[C@H]3CCCCN3S(=O)(=O)c3ccc(C)cc3)n2)cc1 [ML-277]", "measurement_target": "SARS-CoV-2", "assigned_label": "False"}
{"compound": "CNC(=O)c1cccc(NC(=O)N2CCC(Oc3ccccc3Cl)CC2)c1 [A-939572]", "measurement_target": "SARS-CoV-2", "assigned_label": "True"}
{"compound": "COCc1c(-c2ccc(NC(=O)Nc3cc(C(F)(F)F)ccc3F)c(F)c2)c2c(N)ncnn2c1CN1CCOCC1 [ACTB-1003]", "measurement_target": "SARS-CoV-2", "assigned_label": "False"}
{"compound": "Cc1cc(=O)oc2c(C=O)c(O)ccc12 [4-mu-8C]", "measurement_target": "SARS-CoV-2", "assigned_label": "False"}

API: the following record is the query input.
Consider C=C(c1ccccc1OCc1cccc(Cl)c1)n1ccnc1 [Cloconazole HCl] . Does its % Inh. (% Inhibition of SARS-CoV-2) lie strictly below 90%?
False

* * *

Assay: Compound cytotoxicity against CaCo-2 cells at 48 hours
Assay type: cell-based, Human
Conditions: human; comparative experiments, CaCo-2 cells, 48 hours
Structures can show the parent of a compound that is named as a salt.
measurement_kind: CC50 at 48 h

Study these solved cases before continuing.
{"compound": "N=C(N)c1ccc2cc(OC(=O)c3ccc(N=C(N)N)cc3)ccc2c1 [Nafamostat mesylate]", "CC50 at 48 h": "> 20 µM"}
{"compound": "NS(=O)(=O)OC[C@@H]1C[C@@H](n2ccc3c(N[C@H]4CCc5ccccc54)ncnc32)C[C@@H]1O [Pevonedistat hydrochloride]", "CC50 at 48 h": "222 µM"}
{"compound": "Nc1nc2nc[nH]c2c(=S)[nH]1 [TIOGUANINE]", "CC50 at 48 h": "2.21 µM"}
{"compound": "NC(=O)c1nnn(Cc2cc(Cl)c(C(=O)c3ccc(Cl)cc3)c(Cl)c2)c1N [carboxyamidotriazole]", "CC50 at 48 h": "0.11 µM"}

Next compound, please.
Reported CC50 at 48 h for CN(C)C(=O)COC(=O)Cc1ccc(OC(=O)c2ccc(NC(=N)N)cc2)cc1 [Camostat Mesilate (FOY-305), Camostat Mesilate] : what is it?
> 20 µM

* * *

Test system: SARS-CoV-2
Settings: 10 µM
measurement_kind: % Inh. (% Inhibition of SARS-CoV-2) (%)
Kindly answer with a numeric value in %, unit omitted.

Sample answers from the record:
{"molecule": "CCS(=O)(=O)N(Cc1cccnc1)c1cccc(-c2ccc(C#N)cc2)c1", "% Inh. (% Inhibition of SARS-CoV-2) [%]": 139.6}
{"molecule": "COC(=O)Nc1ccc(-c2nc(N3CCOCC3)c3cnn(C4CCN(C(=O)OC)CC4)c3n2)cc1", "% Inh. (% Inhibition of SARS-CoV-2) [%]": 89.9}

Returns the measured % Inh. (% Inhibition of SARS-CoV-2) for the input molecule. Input: COc1cccc(-c2cc(F)ccc2[C@H]2Cc3nc(N)nc(C)c3C(=O)N2)n1
100.4

Now consider c1ccc(C(NCCNC(c2ccccc2)c2ccccc2)c2ccccc2)cc1 and answer again.
71.9

* * *

System: SARS-CoV-2
Conditions: 10 µM
measurement_kind: % Inh. (% Inhibition of SARS-CoV-2) (%)
Answer with a number only, understood to be in %.

Solved entries:
{"compound": "CC(C)(C)c1cc(C(=O)/C(C#N)=N/Nc2cccc(Cl)c2)no1", "units_symbol": "%", "% Inh. (% Inhibition of SARS-CoV-2)": 78.0}
{"compound": "Cn1c(Nc2ccc(C(F)(F)F)cc2)nc2cc(Oc3ccnc(-c4ncc(C(F)(F)F)[nH]4)c3)ccc21", "units_symbol": "%", "% Inh. (% Inhibition of SARS-CoV-2)": 93.2}
{"compound": "O=C(Nc1cnccc1Cl)N1CCN(Cc2ccc3c(c2)OC(F)(F)O3)CC1", "units_symbol": "%", "% Inh. (% Inhibition of SARS-CoV-2)": 94.9}
{"compound": "c1ccc2sc(SN3CCOCC3)nc2c1", "units_symbol": "%", "% Inh. (% Inhibition of SARS-CoV-2)": 64.6}
{"compound": "CC[C@H](CO)Nc1nc(NCc2ccc(-c3ccccn3)cc2)c2ncn(C(C)C)c2n1 [CR8-(R)]", "units_symbol": "%", "% Inh. (% Inhibition of SARS-CoV-2)": 76.6}

Quick one: % Inh. (% Inhibition of SARS-CoV-2) for CC(C)c1ccc2c(c1)CC[C@H]1[C@](C)(CN)CCC[C@]21C ?
76.4

* * *

Tested on: SARS-CoV-2
Conditions: 10 µM
measurement_kind: % Inh. (% Inhibition of SARS-CoV-2) (%)
Write the number in % without appending the unit.

Consider the following illustrative entries.
{"compound": "CC(C)(C)c1ccc(/C=C/C(=O)Nc2ccc3c(c2)OCCO3)cc1 [AMG-9810]", "measurement_target": "SARS-CoV-2", "% Inh. (% Inhibition of SARS-CoV-2) [%]": 93.7}
{"compound": "Cc1cc(N2CCOCC2)ccc1Nc1nc(NC2CCCCC2)c2[nH]cnc2n1 [MPI-0479605]", "measurement_target": "SARS-CoV-2", "% Inh. (% Inhibition of SARS-CoV-2) [%]": 61.2}

For the next question, use this compound.
// query % Inh. (% Inhibition of SARS-CoV-2) value for entry Cc1[nH]nc2ccc(-c3cncc(OC[C@@H](N)Cc4ccccc4)c3)cc12 [A-674563]
53.3

* * *

System: SARS-CoV-2
Conditions: 10 µM
measurement_kind: % Inh. (% Inhibition of SARS-CoV-2) (%)
I only need the number, in %, no unit after it.

Example entries and their recorded answers appear below.
{"compound": "OCCNC1CCCc2c1[nH]c1ccc(-c3ccccc3)cc21 (stereo not shown)", "measurement_target": "SARS-CoV-2", "endpoint_result": 71.2}
{"compound": "COc1ccc(-c2ccc3c(N4CCOC[C@@H]4C)nc(N4CCOC[C@@H]4C)nc3n2)cc1CO", "measurement_target": "SARS-CoV-2", "endpoint_result": 105.2}
{"compound": "NC(=NC1C2CC3CC(C2)CC1C3)Nc1ccc(I)cc1 (stereo not shown)", "measurement_target": "SARS-CoV-2", "endpoint_result": 180.5}
{"compound": "CC(CNS(=O)(=O)C(C)C)c1ccc(-c2ccc(C#N)cc2)cc1 (stereo not shown)", "measurement_target": "SARS-CoV-2", "endpoint_result": 80.4}
{"compound": "O=C1NC(=O)c2cc(Nc3ccccc3)c(Nc3ccccc3)cc21", "measurement_target": "SARS-CoV-2", "endpoint_result": 94.5}
{"compound": "CCc1nc2ccc(Cl)cn2c1C(=O)NCc1ccc(N2CCC(c3ccc(OC(F)(F)F)cc3)CC2)cc1", "measurement_target": "SARS-CoV-2", "endpoint_result": 96.9}
{"compound": "N#Cc1ccc(N2N=C3c4ccc(C(=O)O)cc4CC[C@@H]3[C@@H]2C2CCCC2)cc1Cl", "measurement_target": "SARS-CoV-2", "endpoint_result": 58.6}
{"compound": "CC[N+](C)(CC)CCC[n+]1c(-c2ccccc2)c2cc(N)ccc2c2ccc(N)cc21.[I-].[I-] [propidium-iodide]", "measurement_target": "SARS-CoV-2", "endpoint_result": 69.7}
{"compound": "CCOc1cc(C(=O)Nc2ccc(Cl)c(-c3nc4ccccc4[nH]3)c2)cc(OCC)c1OCC", "measurement_target": "SARS-CoV-2", "endpoint_result": 84.1}
{"compound": "CCCCN1[C@@H]2CC[C@H]1CC(OC(c1ccc(F)cc1)c1ccc(F)cc1)C2 (stereo partly shown)", "measurement_target": "SARS-CoV-2", "endpoint_result": 93.1}

Dear colleague, I am looking for the recorded % Inh. (% Inhibition of SARS-CoV-2) of the following compound: Cc1cc(-c2nc3cc(F)ccc3s2)ccc1NC(=O)[C@@H](N)CCCCN.Cl.Cl
67.1

Can you handle NC1(Cc2ccc(Cl)cc2)CCN(c2ncnc3[nH]ccc23)CC1 next?
86.7
